# Experimental Protocol: self-splicing fitness, log relative to wild type (ln ratio); higher = more splicing; Tetrahymena group I intron in knt gene, E. coli kanamycin selection, DiMSum; sequences stand for … in CUCUCU…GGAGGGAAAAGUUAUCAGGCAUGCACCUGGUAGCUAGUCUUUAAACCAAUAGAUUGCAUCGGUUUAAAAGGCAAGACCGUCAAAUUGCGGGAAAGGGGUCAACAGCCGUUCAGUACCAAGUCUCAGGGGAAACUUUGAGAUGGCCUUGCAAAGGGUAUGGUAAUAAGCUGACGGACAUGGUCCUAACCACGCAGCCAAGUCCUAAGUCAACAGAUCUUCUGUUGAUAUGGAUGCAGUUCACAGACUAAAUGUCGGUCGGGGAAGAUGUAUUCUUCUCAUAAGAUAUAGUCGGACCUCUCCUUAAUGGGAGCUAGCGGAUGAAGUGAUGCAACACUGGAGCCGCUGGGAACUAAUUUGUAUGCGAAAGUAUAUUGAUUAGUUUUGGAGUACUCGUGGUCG;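 also: selection with 25 µg/mL kanamycin versus none on LB agar overnight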
# Cond: 30 °C
sequences and their reported self-splicing fitness (ln)
Answer with a number only.

Sequence Text: AAGCAGCAAUAUUACGACAC
self-splicing fitness (ln): -1.25

Sequence Text: CGAGAGCAAUAUUACGAUUU
self-splicing fitness (ln): -1.8

Sequence Text: CCAAAGCAAUAUUACGGAGC
self-splicing fitness (ln): -3.3

Sequence Text: GGGUAGCAAUAUUACGGUCA
self-splicing fitness (ln): 0.229

Sequence Text: GCCGAGCAAUAUUACGCGUG
self-splicing fitness (ln): -2.05

Sequence Text: GAACAGCAAUAUUACGGACA
self-splicing fitness (ln): -1.3

Sequence Text: GAUCAGCAAUAUUACGACCU
self-splicing fitness (ln): -0.708

Sequence Text: AUGUAGCAAUAUUACGCUUU
self-splicing fitness (ln): -3.23

Sequence Text: GCGCAGCAAUAUUACGAGCA
self-splicing fitness (ln): -3.48

Sequence Text: GCGAAGCAAUAUUACGAAGA
self-splicing fitness (ln): -2.14

Input: Identify measured self-splicing fitness (ln) corresponding to CGAGAGCAAUAUUACGUACG
Output: -3.14

Input: Output measured self-splicing fitness (ln) for this item: UUCAAGCAAUAUUACGCAUG
Output: -2.8

Input: Entry AGAUAGCAAUAUUACGUCCU needs its self-splicing fitness (ln) filled in; supply it.
Output: 0.545

Input: # return recorded self-splicing fitness (ln) for entry GGAAAGCAAUAUUACGCGUU
Output: -3.16

Input: Input UCACAGCAAUAUUACGAGUA , output reported self-splicing fitness (ln).
Output: -2.02
